viability at 28.5 h, 10 µM reference
test: in vitro; settings: human, hela cells, % viability
Please give a number only; it is taken to be in %.

Example results:
Value lookup for viability at 28.5 h, 10 µM; key = COCCN1CCn2c(nc3cc(NC(=O)C4CCCCC4)ccc32)C1 [CBK307411]
112

Value lookup for viability at 28.5 h, 10 µM; key = NC(=O)C1(N2CCCCC2)CCN(C(=S)NC2CCCC2)CC1 [CBK091884]
88.1

Value lookup for viability at 28.5 h, 10 µM; key = CCOCCCNc1c2c(c(C#N)c3nc4ccccc4n13)CCC2 [CBK263151]
93.5

Value lookup for viability at 28.5 h, 10 µM; key = O=C(O)CCn1oc(=O)c2ccccc21 [CBK020340]
89.8

Value lookup for viability at 28.5 h, 10 µM; key = Cc1ccc(CN2CCCN(C(=O)Cn3nc4ccccn4c3=O)CC2)cc1 [CBK297768]
79.7

Value lookup for viability at 28.5 h, 10 µM; key = Cc1cccc(-c2nnn(CC(=O)O)n2)c1 [CBK068105]
102

Value lookup for viability at 28.5 h, 10 µM; key = Cc1cccc(NC(=O)C2CC(=O)N=C(Nc3nc4ccccc4s3)N2)c1 (centres unmarked) [CBK264362]
108

Value lookup for viability at 28.5 h, 10 µM; key = CCCC(=O)c1ccc(S(=O)(=O)N2CCN(Cc3csc(-c4ccccc4)n3)CC2)cc1 [CBK063161]
93.3

Value lookup for viability at 28.5 h, 10 µM; key = NC(=O)CN1CCCC2(CCN(C(=O)Cc3c[nH]c4ccccc34)C2)C1 (centres unmarked) [CBK132046]
87.4

Value lookup for viability at 28.5 h, 10 µM; key = CCCCOc1ccc(-c2nonc2NC(=O)COc2ccccc2Cl)cc1 [CBK299792]
117

Next:
Value lookup for viability at 28.5 h, 10 µM; key = COc1ccccc1C(=O)Nc1ccc(Cl)c(C(=O)O)c1 [CBK287034]
82.1

Value lookup for viability at 28.5 h, 10 µM; key = Nc1nc2c(ncn2[C@@H]2O[C@H](CO)[C@H](O)C2O)c(=O)[nH]1 (some centres unmarked) [CBK201173]
96

Value lookup for viability at 28.5 h, 10 µM; key = Cc1cc(COc2nccnc2OC2CCN(Cc3ccccc3F)CC2)no1 [CBK082948T]
109

Value lookup for viability at 28.5 h, 10 µM; key = Cc1nonc1CC(=O)N[C@H]1C2CCCCC2[C@@H]1c1ccccc1 (some centres unmarked) [CBK285126]
102

Value lookup for viability at 28.5 h, 10 µM; key = COC(CNC(=O)Cn1nnnc1CN1CCC(C)CC1)c1cccs1 (centres unmarked) [CBK306958]
109

Value lookup for viability at 28.5 h, 10 µM; key = CCCCN(C)c1c(C)nc2c(OCc3ccc(S(=O)(=O)N(C)C)cc3)cccn12 [CBK147189]
96.2

Value lookup for viability at 28.5 h, 10 µM; key = O=C(NCCCN1CCOCC1)c1ccccc1Br [CBK262602C]
106

* * *

assay: in vitro; details: human, hela cells, % viability
viability at 28.5 h, 10 µM reference
Please give a number only; it is taken to be in %.

Example results:
Value lookup for viability at 28.5 h, 10 µM; key = Nc1c(-c2ccsc2)cnc2cccnc12
87.8

Value lookup for viability at 28.5 h, 10 µM; key = COc1ccc(CC(=O)N2CCCc3c(cnn3C)C2)cc1F
87.9

Here is the next item to consider.
Value lookup for viability at 28.5 h, 10 µM; key = CCCn1c(SC(C)C(=O)Nc2ccc(S(=O)(=O)NC(C)C)cc2)n[nH]c1=O (stereo not drawn)
87.9

Reference for the values: paper PMC12040169
